Data credit: ChEMBL document CHEMBL4689842

Consider the following molecules; for each one, report its Total Cell Count.
# System: U2OS
# assay details: Multiplex assay against U2OS
# Type: toxicity, cell-based
# conditions: human, 24 h, 1 µM, compound concentration 1 uM, replicate 2
Write no unit; give the number alone.

**Q:** Given the molecule `CNC(=O)c1nn(C)c2c1C(C)(C)Cc1cnc(Nc3ccc(N4CCN(C)CC4)cc3)nc1-2` , what is its reported Total Cell Count?
**A:** 160

**Q:** // repeat for CC(C)Oc1ccc(C(=O)N[C@H](CNC(=O)CN(C)C)Cc2ccc(-c3cn4cccc([C@H](C)O)c4n3)cc2)cc1Cl [GSK-923295A] and report
**A:** 136

**Q:** // repeat for `CNc1oc(-c2cccc3ccccc23)nc1C#N` and report
**A:** 113

**Q:** // repeat for `CCCn1c(=O)c2[nH]c(C34CC5CC(CC3C5)C4)nc2n(CCC)c1=O` and report
**A:** 83

**Q:** // repeat for `CNC(=O)c1cc(Oc2ccc(NC(=O)Nc3cc(C(C)(C)C)nn3-c3ccc4ncccc4c3)c(F)c2)ccn1` and report
**A:** 126

**Q:** // repeat for `CC(=O)c1cc(-c2cc(C(=O)NC3CC3)ccc2C)c2ncccn12` and report
**A:** 70

**Q:** // repeat for `CCc1cc2c(cc1CC)CC(NC[C@H](O)c1ccc(O)c3[nH]c(=O)ccc13)C2` and report
**A:** 73

**Q:** // repeat for `c1ccc2oc(-c3csc(C4CCN(Cc5nc6ncccc6[nH]5)CC4)n3)cc2c1` and report
**A:** 181

* * *

# Test system: Fibroblast
# assay details: Incucyte cell viability with human fibroblast; also: filed as whole numbers so only -1 and 0 and 1 occur
# Type: toxicity, cell-based
# conditions: 18 h, 10 µM, compound concentration 10 uM, replicate number 1, timepoint 18 hours
property name: Growth Rate
Write no unit; give the number alone.

**Q:** Given the compound `CCOc1cc2ncc(C#N)c(Nc3ccc(OCc4cccc(F)c4)c(Cl)c3)c2cc1NC(=O)/C=C/CN(C)C` , what is its reported Growth Rate?
**A:** 0

**Q:** // repeat for `CCOC(=O)c1cc(C#N)c(N2CCC(C(=O)NS(=O)(=O)Cc3ccccc3)CC2)nc1C` and report
**A:** 0

**Q:** // repeat for `O=C(O)c1ccc2cc(-c3ccc(O)c(C45CC6CC(CC(C6)C4)C5)c3)ccc2c1` and report
**A:** 0

**Q:** // repeat for `Cc1cc2c(cc1N1C(=O)c3cccc4c(CCCO)ccc(c34)C1=O)n(C)c(=O)n2C` and report
**A:** 0

**Q:** // repeat for `CCCCc1nc2ccc(NC(=O)NC3CCCCC3)cc2n1Cc1ccc(-c2ccccc2C(=O)O)cc1` and report
**A:** 1

**Q:** // repeat for `CCN(CC)CCCCC1CCN(CC(=O)N2c3ccccc3C(=O)Nc3cccnc32)CC1` and report
**A:** 1

**Q:** // repeat for `COc1cc2c(cc1-c1c(C)noc1C)ncc1[nH]c(=O)n([C@H](C)c3ccccn3)c12` and report
**A:** 0

**Q:** // repeat for `CO[C@@H]1COCC[C@@H]1N[C@@H]1CC[C@@](C(=O)N2CCc3ncc(C(F)(F)F)cc3C2)(C(C)C)C1` and report
**A:** 1

**Q:** // repeat for `O=C(Nc1cccnc1)c1cc(-c2ccnc(F)c2)ccc1OCc1ccccc1` and report
**A:** 0

**Q:** // repeat for `Cc1nc2sccn2c(=O)c1CCN1CCC(=C(c2ccc(F)cc2)c2ccc(F)cc2)CC1` and report
**A:** 0

**Q:** // repeat for `CCCOc1ccc([C@@H]2[C@@H](C(=O)O)[C@H](c3ccc4c(c3)OCO4)CN2CC(=O)Nc2c(CC)cccc2CC)cc1` and report
**A:** 1

**Q:** // repeat for `Cc1c(Oc2ccc(F)cc2)c(OC(C)C)nn1-c1ccc(C2CC2)cn1` and report
**A:** 0
